- Test System: purified human FAP antigen (human, UniProt Q12884 26-760, limits assumed)
- Assay Details: ELISA, plate coated with purified human FAP antigen (FIG. 56A-56C)
pKd: −log10 of the molar value.
Assay Metric: pKd

Param item = IAB16M1-12 (other, also called Sibrotuzumab minibody; the control) DIVMTQSPDSLAVSLGERATINCKSSQSLLYSRNQKNYLAWYQQKPGQPPKLLIFWASTRESGVPDRFSGSGFGTDFTLTISSLQAEDVAVYYCQQYFSYPLTFGQGTKVEIKGSTSGGGSGGGSGGGGSSQVQLVQSGAEVKKPGASVKVSCKTSRYTFTEYTIHWVRQAPGQRLEWIGGINPNNGIPNYNQKFKGRVTITVDTSASTAYMELSSLRSEDTAVYYCARRRIAYGYDEGHAMDYWGQGTLVTVSSEPKSSDKTHTCPPCPPCGGGSSGGGSGGQPREPQVYTLPPSREEMTKNQVSLTCLVKGFYPSDIAVEWESNGQPENNYKTTPPVLDSDGSFFLYSKLTVDKSRWQQGNVFSCSVMHEALHNHYTQKSLSLSPG ; retrieve measured pKd. ~10.00
